These entries and their values trace back to patent US20180185504A1.

- measured on: T1, human PRLR on cells (endogenous on T47D, T47D#11, MCF7); introduced in HEK293/hPRLR/STAT5-Luc, 293/hPRLR, … (human, UniProt P16471 25-622)
- T1 construct: no tag is stated for these lines; also called prolactin receptor
- T1 sequence: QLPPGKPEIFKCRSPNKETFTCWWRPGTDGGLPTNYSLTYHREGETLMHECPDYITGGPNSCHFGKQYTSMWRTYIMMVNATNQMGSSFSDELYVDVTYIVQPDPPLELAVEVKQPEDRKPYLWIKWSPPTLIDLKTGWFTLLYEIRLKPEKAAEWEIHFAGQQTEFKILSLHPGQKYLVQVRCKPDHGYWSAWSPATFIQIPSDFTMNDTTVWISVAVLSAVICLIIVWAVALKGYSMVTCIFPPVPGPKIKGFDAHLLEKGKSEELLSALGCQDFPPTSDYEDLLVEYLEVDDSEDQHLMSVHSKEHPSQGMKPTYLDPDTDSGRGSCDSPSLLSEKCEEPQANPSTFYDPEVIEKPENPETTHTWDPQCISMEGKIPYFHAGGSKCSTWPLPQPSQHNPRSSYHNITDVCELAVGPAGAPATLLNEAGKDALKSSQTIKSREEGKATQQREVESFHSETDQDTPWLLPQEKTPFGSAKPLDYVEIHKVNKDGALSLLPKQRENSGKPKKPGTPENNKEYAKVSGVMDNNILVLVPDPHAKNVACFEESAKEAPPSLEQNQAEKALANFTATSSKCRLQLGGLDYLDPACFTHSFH
- protocol description: imaging of alexa488 intensity on T47D cells
Listing of entries alongside the reported % Total Binding relative to Control I.
observed property: % Total Binding relative to Control I (%)

>>> measured("H1H6793P (antibody, human IgG1, V domains shown, human IgG1 Fc (H1H)) VH: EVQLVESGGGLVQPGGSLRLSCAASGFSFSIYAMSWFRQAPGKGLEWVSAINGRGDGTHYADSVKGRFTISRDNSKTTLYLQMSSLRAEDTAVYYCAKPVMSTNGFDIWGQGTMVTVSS VL: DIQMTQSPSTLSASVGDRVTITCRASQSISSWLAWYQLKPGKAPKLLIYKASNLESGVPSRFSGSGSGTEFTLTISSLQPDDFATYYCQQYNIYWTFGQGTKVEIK")
178
>>> measured("H1H6966N (antibody, human IgG1, V domains shown, also called H2M6966N) VH: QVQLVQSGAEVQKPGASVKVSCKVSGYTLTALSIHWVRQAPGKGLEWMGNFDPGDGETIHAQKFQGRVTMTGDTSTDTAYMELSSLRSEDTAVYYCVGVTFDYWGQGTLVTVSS VL: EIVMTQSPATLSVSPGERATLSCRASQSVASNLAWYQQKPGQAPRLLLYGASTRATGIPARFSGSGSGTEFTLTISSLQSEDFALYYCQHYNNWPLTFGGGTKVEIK")
111
>>> measured("H1H6797P (antibody, human IgG1, V domains shown, human IgG1 Fc (H1H)) VH: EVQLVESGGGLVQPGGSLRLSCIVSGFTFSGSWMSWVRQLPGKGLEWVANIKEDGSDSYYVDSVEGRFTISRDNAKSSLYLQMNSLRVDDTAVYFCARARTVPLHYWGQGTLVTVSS VL: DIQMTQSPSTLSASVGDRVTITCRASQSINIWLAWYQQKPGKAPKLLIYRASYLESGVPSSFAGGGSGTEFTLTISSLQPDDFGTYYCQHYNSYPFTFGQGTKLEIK")
151
